B1: HDV Ribozyme (parent)
chain: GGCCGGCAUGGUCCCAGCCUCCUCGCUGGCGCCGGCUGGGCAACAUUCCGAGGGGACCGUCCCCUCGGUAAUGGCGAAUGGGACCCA

# Variants of: B1
# protocol-text: self-cleavage, relative activity (ratio to wild type); higher = more cleavage; co-transcriptional
Record 1.0 whenever self-cleavage is at 0.5 or higher; record 0.0 when lower.

Below, 5 variants whose answers are already recorded.
sequence-entry	class-label
GGCCGGCAUGGACCCAGCCUCCUUGCUGGCGCCGGCUGGGCAACAUUCCGAGGGGACCGUCCCCUCGGUAAUGGCGAAUGGGACCCA [U12A C24U]	0.0
GGCCGGCAUGGUCCCAGCCUCCUCGCUGGCGCCGGCUGGGCAUCAUUCCGAGGGGACCGCCCCCUCGGUAAUGGCGAAUGGGACCCA [A43U U60C]	1.0
GGCCGGCAUGGUCCCACCCUCCUCGCUGGCGCCGGCUGGGCAACAUUCUGAGGGGACCGUCCCCUCGGUAAUGGCGAAUGGGACCCA [G17C C49U]	0.0
GGCCGGCAUGGUCCCAGCCUCCUCGCUGGCGCAGGCUGGGCAACAUUCCGAGAGGACCGUCCCCUCGGUAAUGGCGAAUGGGACCCA [C33A G53A]	0.0
GGCCAGCAUGGACCCAGCCUCCUCGCUGGCGCCGGCUGGGCAACAUUCCGAGGGGACCGUCCCCUCGGUAAUGGCGAAUGGGACCCA [G5A U12A]	0.0

*Q* Is it the case that GGCCGGCAUGGUCCCAGCCUCCUCGCUGGCGCCUACUGGGCAACAUUCCGAGGGGACCGUCCCCUCGGUAAUGGCGAAUGGGACCCA [G34U G35A] has self-cleavage reaching or exceeding 0.5?
*A* 0.0

*Q* Is it the case that GGCCGGCAUGGUCCCAGCCUCCUCGCUGGCGCCGGCUGGACAACAUUCCGAGGGGACCGUCCCCUCGGUAAUGGCGAAUGGGACGCA [G40A C85G] has self-cleavage reaching or exceeding 0.5?
*A* 1.0
